Overview of reported viability, T/C across a group of compounds:
# System: DMS-114 complex spheroids with HUVEC/MSC, growth % test/control
# Assay: Anticancer human tumor DMS-114 cell line growth inhibition [AhR];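 note: spheroids exposed to agents for 7 days before readout; 100% = DMSO vehicle control wells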
# Particulars: second compound 1 µM; first compound 0.000949 µM; hits give low values
Readout Kind: viability, T/C (%)

compound="CCc1c2c(nc3ccc(O)cc13)-c1cc3c(c(=O)n1C2)COC(=O)[C@]3(O)CC + Cc1cncc(-c2nc(NCCc3c[nH]c4ccccc34)c3ncn(C(C)C)c3n2)c1" readout_kind="viability, T/C" unit_abbreviation=% measured_number=62.5
compound="CC(C)CC(NC(=O)C(Cc1ccccc1)NC(=O)c1cnccn1)B(O)O (stereo not drawn) + Cc1cncc(-c2nc(NCCc3c[nH]c4ccccc34)c3ncn(C(C)C)c3n2)c1" readout_kind="viability, T/C" unit_abbreviation=% measured_number=101
compound="Nc1ncn(C2CC(O)C(CO)S2)c(=O)n1 (stereo not drawn) + Cc1ccccc1N=Nc1ccc(NC(=O)c2ccnn2C)c(C)c1" readout_kind="viability, T/C" unit_abbreviation=% measured_number=101

----------
Catalogue of compounds with associated viability, T/C
# Test system: DMS-114 complex spheroids with HUVEC/MSC, growth % test/control
# Assay: Anticancer human tumor DMS-114 cell line growth inhibition [AhR];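 note: spheroids exposed to agents for 7 days before readout; 100% = DMSO vehicle control wells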
# Particulars: second compound 0.1 µM; first compound 0.03 µM; hits give low values
Readout Kind: viability, T/C (%)

compound="Nc1ncn(C2CC(O)C(CO)S2)c(=O)n1 (stereo not drawn) + Cc1ccccc1N=Nc1ccc(NC(=O)c2ccnn2C)c(C)c1" measured_number=101
compound="O=C(C=Cn1cnc(-c2cc(C(F)(F)F)cc(C(F)(F)F)c2)n1)NNc1cnccn1 + Cc1cncc(-c2nc(NCCc3c[nH]c4ccccc34)c3ncn(C(C)C)c3n2)c1" measured_number=101
compound="CCc1c2c(nc3ccc(O)cc13)-c1cc3c(c(=O)n1C2)COC(=O)[C@]3(O)CC + Cc1ccccc1N=Nc1ccc(NC(=O)c2ccnn2C)c(C)c1" measured_number=35.2

----------
Each entry below lists one item and its recorded viability, T/C value.
# Test system: DMS-114 complex spheroids with HUVEC/MSC, growth % test/control
# Assay: Anticancer human tumor DMS-114 cell line growth inhibition [AhR];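 note: spheroids exposed to agents for 7 days before readout; 100% = DMSO vehicle control wells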
# Particulars: second compound 3.16 µM; first compound 3 µM; hits give low values
Readout Kind: viability, T/C (%)

compound="O=C(C=Cn1cnc(-c2cc(C(F)(F)F)cc(C(F)(F)F)c2)n1)NNc1cnccn1 + CC(CO)NC(=O)c1cc(-c2ccc(Cl)cc2)nn(-c2cnn(C)c2)c1=O" target_entity="DMS-114 complex spheroids with HUVEC/MSC, growth % test/control" readout_kind="viability, T/C" unit_abbreviation=% measured_number=6.66
compound="O=C(C=Cn1cnc(-c2cc(C(F)(F)F)cc(C(F)(F)F)c2)n1)NNc1cnccn1 + Cc1ccccc1N=Nc1ccc(NC(=O)c2ccnn2C)c(C)c1" target_entity="DMS-114 complex spheroids with HUVEC/MSC, growth % test/control" readout_kind="viability, T/C" unit_abbreviation=% measured_number=21.9
compound="CCN(c1cc(-c2ccc(CN3CCOCC3)cc2)cc(C(=O)NCc2c(C)cc(C)[nH]c2=O)c1C)C1CCOCC1 + Cc1cncc(-c2nc(NCCc3c[nH]c4ccccc34)c3ncn(C(C)C)c3n2)c1" target_entity="DMS-114 complex spheroids with HUVEC/MSC, growth % test/control" readout_kind="viability, T/C" unit_abbreviation=% measured_number=63.5
